target: T1, AAV9 (adeno-associated virus 9, Assembled 60-mer capsid of VP1/VP2/VP3 (nested products of one cap gene), amine-coupled to a CM5 chip; the letters give one VP1 subunit only.); experiment: SPR, AAV amine-coupled to CM5 chip
T1 construct: also called adeno-associated virus serotype 9
PARAMETER MEASURED: koff (s⁻¹)
Quick note: give the figure in s⁻¹, leave out the unit.

Form field koff, entry A4-C4 (bispecific antibody) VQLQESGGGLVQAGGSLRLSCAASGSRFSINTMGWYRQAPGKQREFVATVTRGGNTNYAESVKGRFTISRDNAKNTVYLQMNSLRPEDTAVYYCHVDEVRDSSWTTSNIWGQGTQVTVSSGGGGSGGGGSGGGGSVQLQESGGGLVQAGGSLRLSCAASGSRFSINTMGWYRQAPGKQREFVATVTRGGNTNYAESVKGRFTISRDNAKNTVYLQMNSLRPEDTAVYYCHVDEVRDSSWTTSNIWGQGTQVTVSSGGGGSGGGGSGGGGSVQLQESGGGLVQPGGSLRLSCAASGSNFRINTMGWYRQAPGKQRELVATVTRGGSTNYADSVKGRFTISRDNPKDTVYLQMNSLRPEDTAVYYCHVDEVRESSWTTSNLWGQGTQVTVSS : 0.00031
